Test Target: T1, human B7-H1 expressed on cells (human, UniProt Q9NZQ7 19-290)
T1 construct: whole, on cells; also called PD-L1; huB7-H1
T1 sequence (Q9NZQ7 19-290): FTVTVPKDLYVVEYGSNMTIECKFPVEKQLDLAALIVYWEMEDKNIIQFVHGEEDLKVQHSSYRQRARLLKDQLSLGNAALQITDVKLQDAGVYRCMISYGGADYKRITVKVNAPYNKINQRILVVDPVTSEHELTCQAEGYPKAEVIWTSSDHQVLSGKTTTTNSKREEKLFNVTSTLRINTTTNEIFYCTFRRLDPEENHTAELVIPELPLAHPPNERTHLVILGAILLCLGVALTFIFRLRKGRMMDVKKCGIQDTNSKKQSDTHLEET
Assay Protocol: FMAT, hybridoma supernatant, 293T cells expressing human B7-H1
Procedure: Immediately after plating, 10 μl/well of hybridoma supernatants were added and plates incubated for 1.5 hr at room temperature.
For each record, check the reported FL1 × count: if it is below 200000 write 1, else write 0.

These solved cases illustrate the format of a correct answer.
2.20A8 (antibody, IgG2, V domains shown, also called mAb 2.20A8) VH: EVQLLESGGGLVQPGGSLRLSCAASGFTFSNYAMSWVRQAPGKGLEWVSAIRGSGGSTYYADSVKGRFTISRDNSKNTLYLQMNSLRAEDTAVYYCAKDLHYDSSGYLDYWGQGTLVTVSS VL: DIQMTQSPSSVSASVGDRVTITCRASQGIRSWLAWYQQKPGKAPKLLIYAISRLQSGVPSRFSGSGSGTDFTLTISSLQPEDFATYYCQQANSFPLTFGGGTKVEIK	0
2.7A4 (antibody, IgG2, V domains shown, also called mAb 2.7A4) VH: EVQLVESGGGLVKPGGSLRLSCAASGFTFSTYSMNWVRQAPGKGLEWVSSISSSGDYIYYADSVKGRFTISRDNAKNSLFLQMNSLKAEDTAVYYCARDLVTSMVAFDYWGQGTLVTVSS VL: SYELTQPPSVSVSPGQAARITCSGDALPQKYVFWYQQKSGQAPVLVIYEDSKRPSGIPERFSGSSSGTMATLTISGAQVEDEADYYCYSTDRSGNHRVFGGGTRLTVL	0
3.18G1 (antibody, V domains shown, also called mAb 3.18G1) VH: EVQLLESGGDLVQPGGSLRLSCAASGFTFNSYAMSWVRQAPGKGLEWVSTISGSGGFTFSADSVKGRFTISRDNSKNTLFLQMNSLRVEDSAVYSCAKVLVGFNNGCWDYWGQGTLVTVSS VL: SYVLTQPPSVSVAPGQTARITCGGNNIGSKSVHWYQQKPGQAPVLVVYDDSDRPSGIPERFSGSNSGNTATLTISRVEAGDEADYYCQVWDSSNDHVVFGGGTKLTVL	0

Consider now this further binder.
query: Consider the binder 2.9D10 (antibody, V domains shown, Tested as hybridoma supernatant or purified antibody; also called mAb 2.9D10) VH: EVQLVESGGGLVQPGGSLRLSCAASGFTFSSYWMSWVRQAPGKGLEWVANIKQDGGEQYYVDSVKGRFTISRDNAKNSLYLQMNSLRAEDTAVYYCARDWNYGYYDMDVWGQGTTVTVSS VL: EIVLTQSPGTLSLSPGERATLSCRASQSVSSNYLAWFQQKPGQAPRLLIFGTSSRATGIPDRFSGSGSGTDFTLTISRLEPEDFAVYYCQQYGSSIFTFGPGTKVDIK . Is its FL1 × count strictly less than 200000?
result: 1
